target: VIM-1 (Pseudomonas aeruginosa, UniProt A0A0F7KYQ8); assay: In vitro enzyme inhibition assay, purified VIM-1 (imipenem hydrolysis, UV 299 nm); type: biochemical; conditions: mean Ki from multiple experiments; imipenem 300 μM; Cheng-Prusoff from IC50; read-out: Ki VIM-1
Answer each item with its documented Ki.

[in] So what does the record say about Ki for N=C(N)NCCC(=O)Nc1ccc(S(=O)(=O)Nc2scnc2C(=O)O)cc1F ?
[out] 200 to 500 nM

[in] Here is the next molecule: CNC(=N)NCC(=O)Nc1ccc(S(=O)(=O)Nc2scnc2C(=O)O)cc1F
[out] 200 to 500 nM

[in] Next: N#Cc1cc(S(=O)(=O)Nc2scnc2C(=O)O)ccc1NC(=O)CNC(=N)N
[out] < 200 nM

[in] How about this molecule: CN(C)C(=N)CC(=O)Nc1ccc(S(=O)(=O)Nc2scnc2C(=O)O)cc1F
[out] 200 to 500 nM

----------
Kindly state pKi for each of the entries shown.
target: VIM-1 (Pseudomonas aeruginosa, UniProt A0A0F7KYQ8); test: In vitro enzyme inhibition assay, purified VIM-1 (imipenem hydrolysis, UV 299 nm); type: biochemical; details: comparative study bands; read-out: Ki VIM-1 (comparative study)
pKi: −log10 of the molar value.

[in] Item NCC(=O)Nc1ncc(S(=O)(=O)Nc2scnc2C(=O)O)cc1F [Comp. C, reference compound] has what recorded pKi?
[out] 6.00 to 6.30

[in] Also COc1cc(S(=O)(=O)Nc2scnc2C(=O)O)ccc1NC(=O)CN [Comp. E, reference compound] , if possible.
[out] 6.30 to 6.52

[in] And then NCC(=O)Nc1c(F)cc(S(=O)(=O)Nc2scnc2C(=O)O)cc1F [Comp. B, reference compound] , what is it?
[out] 6.30 to 6.52

[in] And for N=C(N)NCC(=O)Nc1ccc(S(=O)(=O)Nc2scnc2C(=O)O)cc1Cl ?
[out] > 6.82

----------
Hi there, I'd appreciate the recorded Ki for every entry that follows.
target: VIM-2 (Escherichia coli); assay: In vitro enzyme inhibition assay, purified VIM-2 (imipenem hydrolysis, UV 299 nm); assay type: biochemical; conditions: mean Ki from multiple experiments; imipenem 300 μM; Cheng-Prusoff from IC50; read-out: Ki VIM-2

[in] # query: Ki of entry N=C(N)NNC(=O)Nc1ccc(S(=O)(=O)Nc2scnc2C(=O)O)cc1F
[out] 20 to 50 nM

[in] Continue with N=C(N)CC(=O)Nc1ccc(S(=O)(=O)Nc2scnc2C(=O)O)cc1F
[out] 20 to 50 nM

[in] Same thing, different molecule: N=C(N)NCC(=O)Nc1ccc(S(=O)(=O)Nc2scnc2C(=O)O)cc1Cl
[out] < 20 nM

[in] And then N#Cc1cc(S(=O)(=O)Nc2scnc2C(=O)O)ccc1NC(=O)CNC(=N)N , what is it?
[out] 20 to 50 nM

[in] Entry N=C(N)NCC(=O)Nc1cc(F)c(S(=O)(=O)Nc2scnc2C(=O)O)cc1F please
[out] < 20 nM

[in] Would you mind doing N=C(NCCN)NCC(=O)Nc1ccc(S(=O)(=O)Nc2scnc2C(=O)O)cc1F as well?
[out] 20 to 50 nM

[in] // repeat for N=C(N)NNC(=O)Nc1c(F)cc(S(=O)(=O)Nc2scnc2C(=O)O)cc1F and report
[out] 20 to 50 nM

[in] Could you do the same for N=C(N)NCCC(=O)Nc1ccc(S(=O)(=O)Nc2scnc2C(=O)O)cc1F , please?
[out] 20 to 50 nM

[in] Quick one: N=C(N)NCc1ccc(S(=O)(=O)Nc2scnc2C(=O)O)cc1F
[out] 50 to 150 nM

[in] # iterate: N=C(N)NCC(=O)NCc1ccc(S(=O)(=O)Nc2scnc2C(=O)O)cc1F
[out] 50 to 150 nM

[in] Now the molecule N=C(N)NCC(=O)Nc1c(F)cc(S(=O)(=O)Nc2scnc2C(=O)O)cc1F
[out] 50 to 150 nM

[in] Proceed to N=C(N)CC(=O)Nc1c(F)cc(S(=O)(=O)Nc2scnc2C(=O)O)cc1F
[out] 50 to 150 nM

[in] Another molecule to look at: N=C(N)CNC(=O)Nc1ccc(S(=O)(=O)Nc2scnc2C(=O)O)cc1F
[out] 20 to 50 nM

[in] Same again, this time with N=C(N)CCC(=O)Nc1ccc(S(=O)(=O)Nc2scnc2C(=O)O)cc1F
[out] 20 to 50 nM

[in] Moving on to the next molecule: CNC(=N)CC(=O)Nc1ccc(S(=O)(=O)Nc2scnc2C(=O)O)cc1F
[out] 50 to 150 nM

[in] Would you mind doing N=C(N)NC(=O)Nc1ccc(S(=O)(=O)Nc2scnc2C(=O)O)cc1F as well?
[out] < 20 nM

[in] And what about the molecule N=C(N)NCCSC(=O)Nc1ccc(S(=O)(=O)Nc2scnc2C(=O)O)cc1F ?
[out] 20 to 50 nM

[in] Repeat with O=C(CNC1=NCCN1)Nc1cc(F)c(S(=O)(=O)Nc2scnc2C(=O)O)cc1F
[out] < 20 nM
